System: 415267-285-R-J2-PDC complex spheroid viability
Assay: Anticancer human tumor 415267-285-R-J2-PDC patient-derived breast carcinoma cell line growth inhibition [POLQ]
Conditions: second compound 1 µM; first compound 10 µM; stronger effect = lower value
Records here are stratified by viability, T/C; strata: lower band: < 40%; central band: ≥ 40% and < 80%; upper band: ≥ 80%

Worked cases, answers included:
molecule	tested.on	assigned.category
Nc1ccn(C2OC(CO)C(O)C2(F)F)c(=O)n1 (stereo unspecified) + Cc1cccc(N(C)C(=O)C2C(O)CCN2c2nc(C)cc(C(F)(F)F)c2C#N)c1	415267-285-R-J2-PDC complex spheroid viability	lower band
Nc1ccn(C2OC(CO)C(O)C2(F)F)c(=O)n1 (stereo unspecified) + COC1C(OC(N)=O)C(O)C(Oc2ccc3c(O)c(NC(=O)c4ccc(O)c(CC=C(C)C)c4)c(=O)oc3c2C)OC1(C)C	415267-285-R-J2-PDC complex spheroid viability	lower band
COc1cc(C2c3cc4c(cc3C(OC3OC5COC(C)OC5C(O)C3O)C3COC(=O)C23)OCO4)cc(OC)c1O (stereo unspecified) + Cc1cccc(N(C)C(=O)C2C(O)CCN2c2nc(C)cc(C(F)(F)F)c2C#N)c1	415267-285-R-J2-PDC complex spheroid viability	lower band

Which viability, T/C category applies to C=CC(=O)N1CCN(c2nc(=O)n(-c3c(C)ccnc3C(C)C)c3nc(-c4c(O)cccc4F)c(F)cc23)C(C)C1 (stereo unspecified) + Cc1cccc(N(C)C(=O)C2C(O)CCN2c2nc(C)cc(C(F)(F)F)c2C#N)c1 here? upper band

Which viability, T/C category applies to O=C(c1cc(Cc2n[nH]c(=O)c3ccccc23)ccc1F)N1CCN(C(=O)C2CC2)CC1 + Cc1cccc(N(C)C(=O)C2C(O)CCN2c2nc(C)cc(C(F)(F)F)c2C#N)c1 here? central band

Which viability, T/C category applies to CCc1cc2c(N3CCc4c(cc(Cn5ccnc5)cc4-c4cn(C)nc4C(F)(F)F)C3=O)cc(C)nc2c(OC)n1 + Cc1cccc(N(C)C(=O)C2C(O)CCN2c2nc(C)cc(C(F)(F)F)c2C#N)c1 here? central band

Which viability, T/C category applies to COc1cc2cc(C(=O)CCC(=O)O)sc2cc1OC + Cc1cccc(N(C)C(=O)C2C(O)CCN2c2nc(C)cc(C(F)(F)F)c2C#N)c1 here? upper band

Which viability, T/C category applies to COc1ccc([C@@H](O)c2cc(-c3ncnc4cc(N5CCOCC5)ccc34)c(F)cc2Cl)nn1 + Cc1cccc(N(C)C(=O)C2C(O)CCN2c2nc(C)cc(C(F)(F)F)c2C#N)c1 here? central band

Which viability, T/C category applies to O=c1[nH]cc(F)c(=O)[nH]1 + Nc1ccc(C#CCN(C(=O)Cc2ncc(C(F)(F)F)cc2C(F)(F)F)c2ccc(F)cc2)nn1 here? lower band

Which viability, T/C category applies to C#Cc1c(F)ccc2cc(O)cc(-c3ncc4c(N5CC6CCC(C5)N6)nc(OCC56CCCN5CC(F)C6)nc4c3F)c12 (stereo unspecified) + Nc1ccc(C#CCN(C(=O)Cc2ncc(C(F)(F)F)cc2C(F)(F)F)c2ccc(F)cc2)nn1 here? upper band

---

# key: entry, value: viability, T/C
System: 415267-285-R-J2-PDC complex spheroid viability
Assay: Anticancer human tumor 415267-285-R-J2-PDC cell line growth inhibition [POLQ];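 also: spheroids exposed to compounds for one week before readout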;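 as to viability, T/C: luminescence used as stand-in measure of viable cells; 100% = DMSO vehicle control viability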
Details: second compound 10 µM; first compound 0.0316 µM; stronger effect = lower value

Worked examples follow.
molecule	tested.on	viability, T/C
CCc1cc2c(N3CCc4c(cc(Cn5ccnc5)cc4-c4cn(C)nc4C(F)(F)F)C3=O)ccnc2c(OC)n1 + Cc1cccc(N(C)C(=O)C2C(O)CCN2c2nc(C)cc(C(F)(F)F)c2C#N)c1	415267-285-R-J2-PDC complex spheroid viability	100%
O=C(Nc1ccc(O)c(NS(=O)(=O)c2ccc(F)cc2)c1)c1ccc(-c2ccccc2)cc1 + COC1C(OC(N)=O)C(O)C(Oc2ccc3c(O)c(NC(=O)c4ccc(O)c(CC=C(C)C)c4)c(=O)oc3c2C)OC1(C)C	415267-285-R-J2-PDC complex spheroid viability	118%

# context switch: different molecule, same viability, T/C
# input molecule: O=C(Nc1ccc(O)c(NS(=O)(=O)c2ccc(F)cc2)c1)c1ccc(-c2ccccc2)cc1 + Cc1cccc(N(C)C(=O)C2C(O)CCN2c2nc(C)cc(C(F)(F)F)c2C#N)c1 ; wanted: its viability, T/C 98.1%

---

Test system: 415267-285-R-J2-PDC complex spheroid viability
Assay: Anticancer human tumor 415267-285-R-J2-PDC cell line growth inhibition [POLQ];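 also: spheroids exposed to compounds for one week before readout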
Conditions: curve of first compound; second compound 0.0316 µM
pIC50: −log10 of the molar value.
# key: entry, value: pIC50

molecule	outcome.measure	result
CC(C)n1c(=O)n(C)c2cnc3cc(F)c(-c4ccc(OCCCN5CCCCC5)nc4)cc3c21 + COC1C(OC(N)=O)C(O)C(Oc2ccc3c(O)c(NC(=O)c4ccc(O)c(CC=C(C)C)c4)c(=O)oc3c2C)OC1(C)C	pIC50	< 5.00

# input molecule: COc1cccc2c1C(=O)c1c(O)c3c(c(O)c1C2=O)CC(O)(C(=O)CO)CC3OC1CC(N)C(O)C(C)O1 (stereo not given) + Cc1cccc(N(C)C(=O)C2C(O)CCN2c2nc(C)cc(C(F)(F)F)c2C#N)c1 ; wanted: its pIC50 > 7.50

# input molecule: C=CCn1c(=O)c2cnc(Nc3ccc(N4CCN(C)CC4)cc3)nc2n1-c1cccc(C(C)(C)O)n1 + COC1C(OC(N)=O)C(O)C(Oc2ccc3c(O)c(NC(=O)c4ccc(O)c(CC=C(C)C)c4)c(=O)oc3c2C)OC1(C)C ; wanted: its pIC50 6.46

# input molecule: CC(C)n1c(=O)n(C)c2cnc3cc(F)c(-c4ccc(OCCCN5CCCCC5)nc4)cc3c21 + Cc1cccc(N(C)C(=O)C2C(O)CCN2c2nc(C)cc(C(F)(F)F)c2C#N)c1 ; wanted: its pIC50 < 5.00

# input molecule: O=C(Nc1ccc(O)c(NS(=O)(=O)c2ccc(F)cc2)c1)c1ccc(-c2ccccc2)cc1 + Nc1ccc(C#CCN(C(=O)Cc2ncc(C(F)(F)F)cc2C(F)(F)F)c2ccc(F)cc2)nn1 ; wanted: its pIC50 < 5.00

---

# key: entry, value: viability, T/C
System: 415267-285-R-J2-PDC complex spheroid viability
Assay: Anticancer human tumor 415267-285-R-J2-PDC cell line growth inhibition [POLQ];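 also: spheroids exposed to compounds for one week before readout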;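 as to viability, T/C: luminescence used as stand-in measure of viable cells; 100% = DMSO vehicle control viability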
Conditions: second compound 0.0316 µM; first compound 1 µM; stronger effect = lower value
Experimental: Multicellular complex tumor spheroid response to Polymerase (POL) inhibitors (novobiocin, ART-558, RP6685) in combination with a variety of drugs and investigational agents in selected tumor cell lines The POL inhibitors (novobiocin, ART-558, and RP6685) were evaluated both individually and in combination with standard of care and investigational anticancer small molecules within a complex spheroid model of solid tumors. . […]
Lab book: enter the figure in %, no units written.

# input compound: CCc1cc2c(N3CCc4c(cc(Cn5ccnc5)cc4-c4cn(C)nc4C(F)(F)F)C3=O)ccnc2c(OC)n1 + Nc1ccc(C#CCN(C(=O)Cc2ncc(C(F)(F)F)cc2C(F)(F)F)c2ccc(F)cc2)nn1 ; wanted: its viability, T/C 87.2

# input compound: CCc1cc2c(N3CCc4c(cc(Cn5ccnc5)cc4-c4cn(C)nc4C(F)(F)F)C3=O)cc(C)nc2c(OC)n1 + Nc1ccc(C#CCN(C(=O)Cc2ncc(C(F)(F)F)cc2C(F)(F)F)c2ccc(F)cc2)nn1 ; wanted: its viability, T/C 85.9

# input compound: COc1ccc([C@@H](O)c2cc(-c3ncnc4cc(N5CCOCC5)ccc34)c(F)cc2Cl)nn1 + Cc1cccc(N(C)C(=O)C2C(O)CCN2c2nc(C)cc(C(F)(F)F)c2C#N)c1 ; wanted: its viability, T/C 102

---

# key: entry, value: viability, T/C
System: 415267-285-R-J2-PDC complex spheroid viability
Test: Anticancer human tumor 415267-285-R-J2-PDC cell line growth inhibition [POLQ];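 also: spheroids exposed to compounds for one week before readout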;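 as to viability, T/C: luminescence used as stand-in measure of viable cells; 100% = DMSO vehicle control viability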
Details: second compound 10 µM; first compound 0.1 µM; stronger effect = lower value
Lab book: enter the figure in %, no units written.

Worked examples follow.
compound	viability, T/C (%)
O=c1[nH]cc(F)c(=O)[nH]1 + Cc1cccc(N(C)C(=O)C2C(O)CCN2c2nc(C)cc(C(F)(F)F)c2C#N)c1	64.5
O=c1[nH]cc(F)c(=O)[nH]1 + Nc1ccc(C#CCN(C(=O)Cc2ncc(C(F)(F)F)cc2C(F)(F)F)c2ccc(F)cc2)nn1	87
CC[C@@]1(O)C(=O)OCc2c1cc1n(c2=O)Cc2cc3c(CN(C)C)c(O)ccc3nc2-1 + Nc1ccc(C#CCN(C(=O)Cc2ncc(C(F)(F)F)cc2C(F)(F)F)c2ccc(F)cc2)nn1	8.26

# context switch: different compound, same viability, T/C
Form field - read-out: viability, T/C; system: 415267-285-R-J2-PDC complex spheroid viability; submitted item: C#Cc1c(F)ccc2cc(O)cc(-c3ncc4c(N5CC6CCC(C5)N6)nc(OCC56CCCN5CC(F)C6)nc4c3F)c12 (stereo unspecified) + Nc1ccc(C#CCN(C(=O)Cc2ncc(C(F)(F)F)cc2C(F)(F)F)c2ccc(F)cc2)nn1 103
